Recorded Ratio IC50, one value per entry.
# Species: Homo sapiens
# assay_remarks: Selectivity ratio of IC50 for inhibition of eIF4A (unknown origin) assessed as inhibition of translation of RNA featuring short 5'-UTR of tubulin to IC50 for inhibition of eIF4A (unknown origin) assessed as inhibition of translation of RNA featuring highly structured 5'-UTR of c-Myc
Form rule: numeric answer, no unit written next to it.

>  <compound>
COc1cncc2c1[C@]1(O)[C@@H](CN)[C@H](CO)[C@@H](c3ccccc3)[C@]1(c1ccc(Br)cc1)O2 (racemic)

>  <readout_label>
Ratio IC50

>  <quantitative_readout>
3.6

$$$$
>  <compound>
COc1cncc2c1[C@]1(O)[C@@H](CN3CCOCC3)[C@H](CO)[C@@H](c3ccccc3)[C@]1(c1ccc(Br)cc1)O2 (racemic)

>  <readout_label>
Ratio IC50

>  <quantitative_readout>
3.2

$$$$
>  <compound>
COc1cncc2c1[C@]1(O)[C@@H](CN)C[C@@H](c3ccccc3)[C@]1(c1ccc(C#N)cc1)O2 (racemic)

>  <readout_label>
Ratio IC50

>  <quantitative_readout>
3.9

$$$$
>  <compound>
COc1cncc2c1[C@]1(O)[C@@H](CNC3COC3)[C@H](CO)[C@@H](c3ccccc3)[C@]1(c1ccc(Br)cc1)O2 (racemic)

>  <readout_label>
Ratio IC50

>  <quantitative_readout>
4.8

$$$$

From here, focus on the item given below.
Record request: Ratio IC50 value, item COc1cncc2c1[C@]1(O)[C@@H](CN)C[C@@H](c3ccccc3)[C@]1(c1ccc(Br)cc1)O2 (racemic)
4.2

----------
# Test system: MDA-MB-231
# assay_remarks: Antiproliferative activity against human MDA-MB-231 cells assessed as inhibition of cell viability incubated for 72 hrs by CellTiter-Glo assay
# Format: functional, cell-based
# run_parameters: MDA-MB-231, 72 h
readout_label: pEC50
Recall that pEC50 is obtained by taking minus log10 of the concentration measured in molar.

Record request: pEC50 value, item N#Cc1ccc([C@@]23Oc4cc(Cl)cnc4[C@]2(O)[C@@H](CN)C[C@H]3c2ccccc2)cc1 (racemic)
7.55

----------
# study_target: hERG (KCNH2) (Homo sapiens)
# Sequence (Q12809 whole entry): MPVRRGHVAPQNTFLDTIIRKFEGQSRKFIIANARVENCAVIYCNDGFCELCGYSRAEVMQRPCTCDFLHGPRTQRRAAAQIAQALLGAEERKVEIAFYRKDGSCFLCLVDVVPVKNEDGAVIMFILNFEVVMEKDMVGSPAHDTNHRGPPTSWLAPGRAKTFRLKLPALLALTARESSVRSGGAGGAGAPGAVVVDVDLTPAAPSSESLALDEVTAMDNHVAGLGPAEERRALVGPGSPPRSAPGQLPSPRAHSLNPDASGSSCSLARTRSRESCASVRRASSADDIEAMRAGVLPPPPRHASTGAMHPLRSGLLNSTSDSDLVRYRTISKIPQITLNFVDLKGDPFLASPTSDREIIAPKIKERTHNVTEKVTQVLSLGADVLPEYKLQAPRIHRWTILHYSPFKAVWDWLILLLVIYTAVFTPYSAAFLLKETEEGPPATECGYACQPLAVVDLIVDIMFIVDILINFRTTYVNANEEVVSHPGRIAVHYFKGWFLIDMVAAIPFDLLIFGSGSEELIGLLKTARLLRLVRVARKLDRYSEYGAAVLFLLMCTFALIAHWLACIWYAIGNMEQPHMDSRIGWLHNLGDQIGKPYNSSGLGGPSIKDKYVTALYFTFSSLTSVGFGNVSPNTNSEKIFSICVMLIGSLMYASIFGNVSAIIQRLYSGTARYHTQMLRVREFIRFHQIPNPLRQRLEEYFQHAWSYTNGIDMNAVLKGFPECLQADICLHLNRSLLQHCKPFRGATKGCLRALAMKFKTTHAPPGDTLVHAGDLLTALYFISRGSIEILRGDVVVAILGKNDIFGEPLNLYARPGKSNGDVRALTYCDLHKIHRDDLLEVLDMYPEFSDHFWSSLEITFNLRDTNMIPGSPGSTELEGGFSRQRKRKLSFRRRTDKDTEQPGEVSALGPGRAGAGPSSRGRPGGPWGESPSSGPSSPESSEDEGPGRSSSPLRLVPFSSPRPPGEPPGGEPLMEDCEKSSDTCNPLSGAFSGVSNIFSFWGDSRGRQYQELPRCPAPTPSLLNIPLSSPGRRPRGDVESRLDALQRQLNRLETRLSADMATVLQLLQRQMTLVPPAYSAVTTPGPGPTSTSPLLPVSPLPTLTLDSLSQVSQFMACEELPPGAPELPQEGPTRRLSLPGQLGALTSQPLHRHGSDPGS
# assay_remarks: Inhibition of human ERG at 10 uM by automated patch method relative to control
Recorded inhibition at 10 µM, one value per entry.
Note: unit % is implicit; provide only the numeric part.

>  <molecule>
COc1cncc2c1[C@]1(O)[C@@H](CN)C[C@@H](c3ccccc3)[C@]1(c1ccc(C#N)cc1)O2 (racemic)

>  <unit_name>
%

>  <inhibition at 10 µM>
54

$$$$
>  <molecule>
COc1cncc2c1[C@]1(O)[C@@H](CN)[C@H](CO)[C@@H](c3ccccc3)[C@]1(c1ccc(Br)cc1)O2 (racemic)

>  <unit_name>
%

>  <inhibition at 10 µM>
37

$$$$
>  <molecule>
COc1cncc2c1[C@]1(O)[C@@H](CN(C)C)[C@H](CO)[C@@H](c3ccccc3)[C@]1(c1ccc(C#N)cc1)O2 (racemic)

>  <unit_name>
%

>  <inhibition at 10 µM>
79

$$$$

Record request: inhibition at 10 µM value, item COc1cncc2c1[C@]1(O)[C@@H](CNCC(F)F)[C@H](CO)[C@@H](c3ccccc3)[C@]1(c1ccc(C#N)cc1)O2 (racemic)
27

Lookup COc1cncc2c1[C@]1(O)[C@@H](CN3CCOCC3)[C@H](CO)[C@@H](c3ccccc3)[C@]1(c1ccc(Br)cc1)O2 (racemic)
12

----------
# assay_remarks: Metabolic stability of the compound in mouse liver microsomes assessed as parent compound remaining measured after 30 mins
# Format: ADME, Microsome
# run_parameters: liver microsomes, read-out: Stabilty
readout_label: remaining at 0.5 h (%)
Note: unit % is implicit; provide only the numeric part.

// worked examples, remaining at 0.5 h included
>  <compound>
COc1cncc2c1[C@]1(O)[C@@H](CN(C)C)[C@H](CO)[C@@H](c3ccccc3)[C@]1(c1ccc(C#N)cc1)O2 (racemic)

>  <remaining at 0.5 h [%]>
67

$$$$
>  <compound>
COc1cncc2c1[C@]1(O)[C@@H](CN3CC4(COC4)C3)[C@H](CO)[C@@H](c3ccccc3)[C@]1(c1ccc(C#N)cc1)O2 (racemic)

>  <remaining at 0.5 h [%]>
67

$$$$
>  <compound>
COc1cncc2c1[C@]1(O)[C@@H](CNCC(F)F)[C@H](CO)[C@@H](c3ccccc3)[C@]1(c1ccc(C#N)cc1)O2 (racemic)

>  <remaining at 0.5 h [%]>
1

$$$$

Record request: remaining at 0.5 h value, item COc1cncc2c1[C@]1(O)[C@@H](CN)[C@H](CO)[C@@H](c3ccccc3)[C@]1(c1ccc(Br)cc1)O2 (racemic)
107

Lookup COc1cncc2c1[C@]1(O)[C@@H](CNCc3ccnn3C)[C@H](CO)[C@@H](c3ccccc3)[C@]1(c1ccc(C#N)cc1)O2 (racemic)
1

Lookup COc1cncc2c1[C@]1(O)[C@@H](CN3CCOCC3)[C@H](CO)[C@@H](c3ccccc3)[C@]1(c1ccc(C#N)cc1)O2 (racemic)
41

Lookup COc1cncc2c1[C@]1(O)[C@@H](CNC3COC3)[C@H](CO)[C@@H](c3ccccc3)[C@]1(c1ccc(C#N)cc1)O2 (racemic)
24

----------
Recorded efflux ratio, one value per entry.
# assay_remarks: Efflux ratio of permeability in human Caco-2 cells
# Format: ADME, cell-based

// worked examples, efflux ratio included
>  <compound>
COc1cncc2c1[C@]1(O)[C@@H](CN(C)C)[C@H](CO)[C@@H](c3ccccc3)[C@]1(c1ccc(C#N)cc1)O2 (racemic)

>  <efflux ratio>
33

$$$$
>  <compound>
COc1cncc2c1[C@]1(O)[C@@H](CNC3COC3)[C@H](CO)[C@@H](c3ccccc3)[C@]1(c1ccc(C#N)cc1)O2 (racemic)

>  <efflux ratio>
12

$$$$

Record request: efflux ratio value, item COc1cncc2c1[C@]1(O)[C@@H](CN3CCOCC3)[C@H](CO)[C@@H](c3ccccc3)[C@]1(c1ccc(C#N)cc1)O2 (racemic)
7

Lookup COc1cncc2c1[C@]1(O)[C@@H](CN3CC4(COC4)C3)[C@H](CO)[C@@H](c3ccccc3)[C@]1(c1ccc(C#N)cc1)O2 (racemic)
86

Lookup COc1cncc2c1[C@]1(O)[C@@H](CNCc3ccnn3C)[C@H](CO)[C@@H](c3ccccc3)[C@]1(c1ccc(C#N)cc1)O2 (racemic)
76

Lookup COc1cncc2c1[C@]1(O)[C@@H](CN)[C@H](CO)[C@@H](c3ccccc3)[C@]1(c1ccc(C#N)cc1)O2 (racemic)
> 4

Lookup COc1cncc2c1[C@]1(O)[C@@H](CN)C[C@@H](c3ccccc3)[C@]1(c1ccc(Br)cc1)O2 (racemic)
13

----------
# study_target: UniProtKB P60842
# Sequence (P60842 whole entry): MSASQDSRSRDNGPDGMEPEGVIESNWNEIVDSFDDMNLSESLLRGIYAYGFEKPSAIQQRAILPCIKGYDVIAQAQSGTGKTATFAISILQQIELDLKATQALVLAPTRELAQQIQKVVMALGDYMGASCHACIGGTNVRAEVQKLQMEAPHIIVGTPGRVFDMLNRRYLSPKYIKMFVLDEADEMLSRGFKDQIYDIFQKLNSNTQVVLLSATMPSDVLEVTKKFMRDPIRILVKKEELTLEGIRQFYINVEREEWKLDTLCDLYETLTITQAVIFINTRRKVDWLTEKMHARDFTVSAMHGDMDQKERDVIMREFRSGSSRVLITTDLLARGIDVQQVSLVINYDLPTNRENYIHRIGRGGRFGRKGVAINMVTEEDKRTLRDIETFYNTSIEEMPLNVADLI
# assay_remarks: Inhibition of eIF4A (unknown origin) assessed as inhibition of translation of RNA featuring short 5'-UTR of tubulin
Recorded pIC50, one value per entry.
Recall that pIC50 is obtained by taking minus log10 of the concentration measured in molar.

// worked examples, pIC50 included
>  <compound>
COc1cncc2c1[C@]1(O)[C@@H](CNC3COC3)[C@H](CO)[C@@H](c3ccccc3)[C@]1(c1ccc(Br)cc1)O2 (racemic)

>  <pIC50>
7.96

$$$$
>  <compound>
COc1cncc2c1[C@]1(O)[C@@H](CN3CCOCC3)[C@H](CO)[C@@H](c3ccccc3)[C@]1(c1ccc(Br)cc1)O2 (racemic)

>  <pIC50>
7.49

$$$$
>  <compound>
COc1cncc2c1[C@]1(O)[C@@H](CN)C[C@@H](c3ccccc3)[C@]1(c1ccc(C#N)cc1)O2 (racemic)

>  <pIC50>
7.66

$$$$
>  <compound>
COc1cncc2c1[C@]1(O)[C@@H](CN)[C@H](CO)[C@@H](c3ccccc3)[C@]1(c1ccc(Br)cc1)O2 (racemic)

>  <pIC50>
7.05

$$$$

Record request: pIC50 value, item COc1cncc2c1[C@]1(O)[C@@H](CN)C[C@@H](c3ccccc3)[C@]1(c1ccc(Br)cc1)O2 (racemic)
7.68

----------
# assay_remarks: Metabolic stability of the compound in mouse liver microsomes assessed as parent compound remaining measured after 30 mins
# Format: ADME, Microsome
# run_parameters: liver microsomes, read-out: Stabilty
readout_label: remaining at 0.5 h (%)
Note: unit % is implicit; provide only the numeric part.

>  <molecule>
COc1cncc2c1[C@]1(O)[C@@H](CN3CCOCC3)[C@H](CO)[C@@H](c3ccccc3)[C@]1(c1ccc(Br)cc1)O2 (racemic)

>  <unit_name>
%

>  <remaining at 0.5 h>
1

$$$$
>  <molecule>
COc1cncc2c1[C@]1(O)[C@@H](CN)[C@H](CO)[C@@H](c3ccccc3)[C@]1(c1ccc(C#N)cc1)O2 (racemic)

>  <unit_name>
%

>  <remaining at 0.5 h>
83

$$$$

From here, focus on the item given below.
Record request: remaining at 0.5 h value, item COc1cncc2c1[C@]1(O)[C@@H](CN)C[C@@H](c3ccccc3)[C@]1(c1ccc(C#N)cc1)O2 (racemic)
108
